Exercise: for every item that follows, state its recorded Median IC50 against viruses neutralized with an IC50 <50 µg/ml.
# target under test: Env of the clade B HIV-1 pseudoviruses of the cross-clade 162-pseudovirus panel (n = 31)
# assay name: cell-based or functional assay
Dear colleague, please send the value followed by its unit.

The value of Median IC50 against viruses neutralized with an IC50 <50 µg/ml measured for the binder PGT-130 (antibody, V domains shown) VH: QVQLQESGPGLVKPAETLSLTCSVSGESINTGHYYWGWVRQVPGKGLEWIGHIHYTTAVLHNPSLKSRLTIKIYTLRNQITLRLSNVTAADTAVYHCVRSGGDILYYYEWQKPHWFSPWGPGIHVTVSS VL: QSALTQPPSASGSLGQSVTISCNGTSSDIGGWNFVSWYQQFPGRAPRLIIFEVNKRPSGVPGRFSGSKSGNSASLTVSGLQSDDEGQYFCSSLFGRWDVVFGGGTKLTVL turned out to be 0.09 µg/mL

According to the records, this binder PGT-128 (antibody, V domains shown) VH: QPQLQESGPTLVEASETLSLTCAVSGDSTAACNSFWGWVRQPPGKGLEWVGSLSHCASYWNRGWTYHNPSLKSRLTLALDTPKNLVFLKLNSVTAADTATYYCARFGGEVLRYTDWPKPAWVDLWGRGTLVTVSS VL: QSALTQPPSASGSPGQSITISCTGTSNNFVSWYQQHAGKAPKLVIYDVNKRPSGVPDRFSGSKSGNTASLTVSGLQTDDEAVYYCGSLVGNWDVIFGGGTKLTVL displays Median IC50 against viruses neutralized with an IC50 <50 µg/ml of 0.01 µg/mL

Please fill in: Median IC50 against viruses neutralized with an IC50 <50 µg/ml reported for PGT-135 (antibody, V domains shown) VH: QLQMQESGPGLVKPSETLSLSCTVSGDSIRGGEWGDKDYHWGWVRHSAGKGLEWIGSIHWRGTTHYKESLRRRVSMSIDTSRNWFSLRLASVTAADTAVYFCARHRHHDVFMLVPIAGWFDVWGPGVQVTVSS VL: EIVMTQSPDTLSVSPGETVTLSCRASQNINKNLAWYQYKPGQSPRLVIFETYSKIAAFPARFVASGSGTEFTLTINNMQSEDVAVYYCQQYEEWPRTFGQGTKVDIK = 0.15 µg/mL
